Each record here notes measured Papp.
Test: in vitro
Settings: human, Caco-2, Caco-2 (cm/sec)
*1 amine or outer side, *2 acyl side, *3 side chain or, on linkers, in order; H or OH if unused. Where a SMILES comes first, the peptide text is derived from it. Bridges are numbered along the chain shown (N, C = ends). [ ]: non-standard residue; d: D form. The star is where a group is joined. ξ: configuration not given here. dhPhe(4-CONHMe,3-OMe) = CNC(=O)c1ccc(CC[C@@H](N)C(=O)O)cc1OC; X11 = CNC(=O)c1ccc(CCN(CC(=O)[*:2])[*:1])cc1OC; NMePhe(3-Cl) = CN[C@@H](Cc1cccc(Cl)c1)C(=O)O; Tyr(3-OMe) = COc1cc(C[C@H](N)C(=O)O)ccc1O; NMehPhe = CN[C@@H](CCc1ccccc1)C(=O)O; X7 = O=C(C[C@H](COCCO)N[*:1])[*:2]; X6 = O=C([C@H](CCCCO)N[*:1])[*:2]; Hyp = O=C(O)[C@@H]1C[C@@H](O)CN1; NMeF = CN[C@@H](Cc1ccccc1)C(=O)O; NMeGABA = CN(CCCC(=O)[*:2])[*:1]; ξThr(3R) = C[C@@H](O)C(N)C(=O)O; Butyl(3-Me,3-OH) = CC(C)(O)CC*; NMeL = CN[C@@H](CC(C)C)C(=O)O; Propyl(2R-OH) = C[C@@H](O)C*; NMeV = CN[C@H](C(=O)O)C(C)C; NMeAbu = CC[C@H](NC)C(=O)O; Piperidide = C1CCN(*)CC1; NBuGly = CCCCNCC(=O)O; NPrGly = CCCNCC(=O)O; Ethyl(2-OH) = OCC*; Sar = CNCC(=O)O; tBu = CC(C)(C)*

| COMPOUND | Papp [×10⁻⁶ cm/s] |
| --- | --- |
| CC[C@H]1C(=O)N[C@@H](CC(C)C)C(=O)N(C)[C@@H](CC(C)C)C(=O)N(C)[C@@H](Cc2ccccc2)C(=O)N[C@@H](Cc2ccc(O)c(OC)c2)C(=O)N(C)[C@@H](CC(C)C)C(=O)N(C)[C@@H](CC(C)C)C(=O)N[C@@H]([C@@H](C)O)C(=O)N(C)CC(=O)N(C)[C@@H](CC(C)C)C(=O)N[C@H](C(=O)N2CCCCC2)CC(=O)N1C [Compound E05] ([NMeAbu]L[NMeL][NMeF][Tyr(3-OMe)][NMeL][NMeL]T[Sar][NMeL]D-Piperidide; lactam N-11) | 1.8 |
| CCCN1CC(=O)N(C)[C@@H](CC(C)C)C(=O)N[C@H](C(=O)N2CCCCC2)CC(=O)N(C)[C@@H](CC(C)C)C(=O)N[C@@H](Cc2ccccc2)C(=O)N(C)[C@@H](CC(C)C)C(=O)N(C)[C@@H](CC(C)C)C(=O)N[C@@H](COCCO)CC(=O)N(C)[C@@H](Cc2ccccc2)C(=O)N(C)[C@@H](CC(C)C)C(=O)N[C@@H]([C@@H](C)O)C1=O [AP24] ([NMeL]F[NMeL][NMeL][X7][NMeF][NMeL]T[NPrGly][NMeL]D-Piperidide; lactam N-11) | 0.42 |
| CCCCN1CC(=O)N(C)[C@@H](Cc2ccccc2)C(=O)N(C)[C@@H](CC(C)C)C(=O)N[C@@H](COC(C)(C)C)C(=O)N(C)[C@@H](CC(C)C)C(=O)N[C@H](C(=O)N2CCCCC2)CC(=O)N(C)CC(=O)N(C)[C@@H](Cc2ccccc2)C(=O)N[C@@H](C(C)C)C(=O)N(C)[C@@H](CC(C)C)C(=O)N[C@@H](COC[C@@H](C)O)C1=O [AP87] ([Sar][NMeF]V[NMeL]S(Propyl(2R-OH))[NBuGly][NMeF][NMeL]S(tBu)[NMeL]D-Piperidide; lactam N-11) | 1 |
| CNC(=O)c1ccc(CC[C@H]2NC(=O)[C@H](CC(C)C)N(C)C(=O)CN(C)C(=O)C([C@@H](C)O)NC(=O)[C@H](CC(C)C)N(C)C(=O)[C@H](CC(C)C)NC(=O)[C@H](Cc3ccccc3)N(C)C(=O)[C@@H](C(C)C)NC(=O)C[C@@H](C(=O)N3CCCCC3)NC(=O)[C@H](CC(C)C)N(C)C(=O)[C@H](CC(C)C)N(C)C2=O)cc1OC (stereo partly drawn) [AP208] ([dV][NMeF]L[NMeL][ξThr(3R)][Sar][NMeL][dhPhe(4-CONHMe,3-OMe)][NMeL][NMeL]D-Piperidide; lactam N-11) | 0.6 |
| CC(C)C[C@H]1C(=O)N(C)[C@@H](C(C)C)C(=O)N[C@@H](Cc2ccccc2)C(=O)N[C@H](C(=O)N(C)[C@@H](Cc2ccccc2)C(=O)N[C@@H](C)C(=O)N2CCCCC2)CC(=O)N(C)CCCC(=O)N[C@@H](C(C)C)C(=O)N(C)[C@@H](CC(C)C)C(=O)N[C@@H]([C@@H](C)O)C(=O)N(C)[C@@H](Cc2ccccc2)C(=O)NCC(=O)N1C [pd198] ([NMeGABA]V[NMeL]T[NMeF]G[NMeL][NMeV]FD[NMeF]A-Piperidide; lactam N-10) | 2.7 |
| CCCN1CC(=O)N(C)[C@@H](Cc2ccccc2)C(=O)N[C@@H]([C@@H](C)CC)C(=O)N(C)[C@@H](CC(C)C)C(=O)N[C@@H]([C@@H](C)O)C(=O)N(C)CC(=O)N(C)[C@@H](Cc2ccccc2)C(=O)N(C)[C@@H](CC(C)C)C(=O)N[C@@H](COCCC(C)(C)O)C(=O)N(C)[C@@H](CC(C)C)C(=O)N[C@H](C(=O)N2CCCCC2)CC1=O [AP59] ([NPrGly][NMeF]I[NMeL]T[Sar][NMeF][NMeL]S(Butyl(3-Me,3-OH))[NMeL]D-Piperidide; lactam N-11) | 0.78 |
| CC[C@H](C)[C@@H]1NC(=O)[C@H](CC(C)C)N(C)C(=O)[C@@H](C)NC(=O)C[C@@H](C(=O)N2CCCCC2)NC(=O)[C@H](CC(C)C)N(C)C(=O)[C@H](Cc2ccccc2)N(C)C(=O)[C@H](COC(C)(C)C)NC(=O)[C@H](CC(C)C)N(C)C(=O)[C@H](CC)N(C)C(=O)[C@H]([C@@H](C)O)NC(=O)CN(CCc2ccc(C(=O)NC)c(OC)c2)C1=O [AP222] ([dA][NMeL]I[X11]T[NMeAbu][NMeL]S(tBu)[NMeF][NMeL]D-Piperidide; lactam N-11) | 0.31 |
| CCCN1CC(=O)N(C)[C@@H](Cc2cccc(Cl)c2)C(=O)N(C)[C@@H](CC(C)C)C(=O)N[C@@H](CCCCO)C(=O)N(C)[C@@H](CC(C)C)C(=O)N[C@H](C(=O)N2CCCCC2)CC(=O)N(C)CC(=O)N(C)[C@@H](CCc2ccccc2)C(=O)N[C@@H](C(C)C)C(=O)N(C)[C@@H](CC(C)C)C(=O)N[C@@H]([C@@H](C)O)C1=O [Compound B08] ([Sar][NMehPhe]V[NMeL]T[NPrGly][NMePhe(3-Cl)][NMeL][X6][NMeL]D-Piperidide; lactam N-11) | 0.15 |
| CC(C)C[C@@H]1NC(=O)C[C@@H](C(=O)N2CCCCC2)NC(=O)[C@H](CC(C)C)N(C)C(=O)[C@H](Cc2ccccc2)NC(=O)[C@H](Cc2ccccc2)N(C)C(=O)[C@H]([C@@H](C)O)NC(=O)[C@H](CC(C)C)N(C)C(=O)[C@@H]2C[C@@H](OCCO)CN2C(=O)[C@H](CC(C)C)N(C)C(=O)[C@H](COC(C)(C)C)NC(=O)[C@H](CC(C)C)N(C)C1=O [AP235] (L[NMeL]S(tBu)[NMeL][Hyp](Ethyl(2-OH))[NMeL]T[NMeF]F[NMeL]D-Piperidide; lactam N-11) | 1.5 |
